# credit: the supplement of paper PMC8967900

tested on: RPMI-8402; assay: selective drug sensitivity score (sDSS, relative to normal bone marrow) (sDSS (score)); higher = more potent and effective on the cell line relative to normal bone marrow cells; conditions: 72 h;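 further: ALL cell lines in 384-well plates, five doses spanning 10,000-fold, each plate scaled between vehicle and 100 µmol/L benzalkonium chloride controls, sDSS an adapted area-under-curve metric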
measuredQuantity: selective drug sensitivity score
The answer should be a number; do not append a unit.

For orientation, consider the following solved cases.
Query string: Bench note: what selective drug sensitivity score did CS(=O)(=O)c1ccc(-c2cnc(N)c(C(=O)Nc3ccccc3)n2)cc1 [VE-821] (top concentration 10000 nM) show?
Result string: 5.54

Query string: How about C[C@H]1Oc2cc(cnc2N)-c2c(nn(C)c2C#N)CN(C)C(=O)c2ccc(F)cc21 (top concentration 1000 nM) ?
Result string: -0.72

Query string: How about CN1CCN(c2ccc(C(=O)Nc3n[nH]c4ccc(Cc5cc(F)cc(F)c5)cc34)c(NC3CCOCC3)c2)CC1 [Entrectinib] (top concentration 1000 nM) ?
Result string: -1.2

Query string: How about COc1ccc(-c2nc(N3CCOCC3)c3sc(CN(C)c4ncc(C(=O)NO)cn4)cc3n2)cn1 [Fimepinostat (CUDC-907)] (top concentration 10000 nM) ?
Result string: 5.28

Query string: How about CCCS(=O)(=O)Nc1ccc(F)c(C(=O)c2c[nH]c3ncc(-c4ccc(Cl)cc4)cc23)c1F [Vemurafenib] (top concentration 10000 nM) ?
Result string: 2.06

---
Query string: Bench note: what selective drug sensitivity score did CN1CCN(c2ccc3nc(-c4c(N)c5c(F)cccc5[nH]c4=O)[nH]c3c2)CC1 [Dovitinib] (top concentration 10000 nM) show?
Result string: -0.14
